Biological target: General amino-acid permease GAP1 (Saccharomyces cerevisiae)
Details: sigma1278b, at 5 mM
Description: Inhibition of nitrogen-starved wild type sigma1278b yeast Gap1-mediated amino acid uptake at 5 mM after 60 secs relative to L-citrulline
Non-standard residues stand in square brackets, D forms with d. Residues, ends and D or L forms follow the SMILES beside them. Sar = CNCC(=O)O
quantityKind: inhibition

Form field inhibition for item CN(CC(=O)O)C(=O)CNC(=O)CN (H-Gly-Gly-[Sar]-OH) on General amino-acid permease GAP1 (Saccharomyces cerevisiae): < 15%

Form field inhibition for item NCC(=O)N[C@@H](Cc1cnc[nH]1)C(=O)NCC(=O)O (H-Gly-His-Gly-OH) on General amino-acid permease GAP1 (Saccharomyces cerevisiae): < 15%

Form field inhibition for item CCCC(NC(=O)CN)C(=O)O (racemic) on General amino-acid permease GAP1 (Saccharomyces cerevisiae): 15%

---

Biological target: General amino-acid permease GAP1 (Saccharomyces cerevisiae)
Details: sigma1278b, at 5 mM
Residues, ends and D or L forms follow the SMILES beside them.
quantityKind: inhibition

Use the examples below as a reference point.
NC(=O)[C@@H]1CCCN1: < 15%
CC[C@H](C)[C@H](NC(=O)CNC(=O)CN)C(=O)O (H-Gly-Gly-Ile-OH): < 15%
C[C@H](NC(=O)CNC(=O)CN)C(=O)O: < 15%
CC[C@H](C)[C@H](NC(=O)[C@@H](N)CC(C)C)C(=O)O (H-Leu-Ile-OH): < 15%
NCC(=O)N[C@@H](Cc1c[nH]c2ccccc12)C(=O)O (H-Gly-Trp-OH): > 30%
CN[C@@H](CC(C)C)C(=O)N[C@@H](CC(C)C)C(=O)O: 15%

Form field inhibition for item "CC(C)C[C@H](NC(=O)CCN)C(=O)O" on General amino-acid permease GAP1 (Saccharomyces cerevisiae): < 15%

Form field inhibition for item N[C@@H](Cc1ccccc1)C(=O)NCC(=O)O (H-Phe-Gly-OH) on General amino-acid permease GAP1 (Saccharomyces cerevisiae): < 15%

Form field inhibition for item C[C@H](N)C(=O)N[C@@H](CC(N)=O)C(=O)O (H-Ala-Asn-OH) on General amino-acid permease GAP1 (Saccharomyces cerevisiae): > 30%

Form field inhibition for item "C[C@@H](NC(=O)[C@@H](N)CCC(=O)O)C(=O)O" on General amino-acid permease GAP1 (Saccharomyces cerevisiae): < 15%

Form field inhibition for item CSCC[C@H](N)C(=O)N[C@@H](C)C(=O)O (H-Met-Ala-OH) on General amino-acid permease GAP1 (Saccharomyces cerevisiae): < 15%

Form field inhibition for item CSCC[C@H](N)C(=O)N[C@@H](CO)C(=O)O (H-Met-Ser-OH) on General amino-acid permease GAP1 (Saccharomyces cerevisiae): < 15%

Form field inhibition for item "COC(=O)CC[C@H](N)C(=O)OC" on General amino-acid permease GAP1 (Saccharomyces cerevisiae): < 15%

Form field inhibition for item "O=C(O)[C@@H]1CNCCN1" on General amino-acid permease GAP1 (Saccharomyces cerevisiae): < 15%

---

Biological target: General amino-acid permease GAP1 (Saccharomyces cerevisiae) (UniProt P19145);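 note: amino acid uptake through Gap1 in nitrogen-starved wild-type yeast cells, measured after 60 s and expressed relative to L-citrulline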
Sequence (whole entry): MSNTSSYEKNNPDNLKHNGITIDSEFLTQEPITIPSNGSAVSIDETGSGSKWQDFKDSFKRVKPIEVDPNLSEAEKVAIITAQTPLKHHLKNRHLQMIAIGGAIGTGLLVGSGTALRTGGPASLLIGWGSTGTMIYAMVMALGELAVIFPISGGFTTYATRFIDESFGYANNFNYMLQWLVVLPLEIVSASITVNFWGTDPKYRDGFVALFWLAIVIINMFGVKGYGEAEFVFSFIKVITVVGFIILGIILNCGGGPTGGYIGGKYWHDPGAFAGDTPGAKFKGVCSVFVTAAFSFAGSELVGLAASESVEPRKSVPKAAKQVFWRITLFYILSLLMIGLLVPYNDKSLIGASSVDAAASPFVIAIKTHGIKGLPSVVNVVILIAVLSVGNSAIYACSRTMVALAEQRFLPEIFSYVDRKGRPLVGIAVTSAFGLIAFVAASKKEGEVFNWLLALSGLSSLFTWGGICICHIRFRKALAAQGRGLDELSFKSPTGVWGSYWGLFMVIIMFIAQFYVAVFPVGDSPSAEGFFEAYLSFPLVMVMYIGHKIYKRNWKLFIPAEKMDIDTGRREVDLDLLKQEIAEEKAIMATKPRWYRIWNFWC
Settings: sigma1278b, at 5 mM
Residues, ends and D or L forms follow the SMILES beside them.
quantityKind: inhibition (%)
// units = %; emit number, no label

CC(=O)NC(Cc1ccc(Br)cc1)C(=O)O (racemic): 15

Turning now to a further compound:
Reported inhibition of CC[C@H](C)[C@H](N)C(=O)N[C@@H](C)C(=O)N1CCC[C@H]1C(=O)O (H-Ile-Ala-Pro-OH) : 15
